The origin of these recorded values is the supplement of paper PMC10627819.

# System: S. pneumoniae D39V;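 further: OD595 on entry to stationary phase over no-drug wells; at most 1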
# measurementNotes: fitness (endpoint OD595 vs no drug) (fraction); higher = more growth
# testParameters: first compound 0.25 µg/mL; partner 4 µg/mL
Exercise: state measured fitness for each of the compounds provided.
Answer with the value's number alone.

**Query** Any idea what fitness was measured for COc1cccc2c1C(=O)c1c(O)c3c(c(O)c1C2=O)C[C@@](O)(C(=O)CO)C[C@@H]3O[C@H]1C[C@H](N)[C@H](O)[C@H](C)O1 [Doxorubicin] + CC1=C(C(=O)O)N2C(=O)[C@@H](NC(=O)[C@H](N)c3ccccc3)[C@H]2SC1 [Cephalexin] ?
**Result** 0.0361

**Query** Any idea what fitness was measured for COc1cccc2c1C(=O)c1c(O)c3c(c(O)c1C2=O)C[C@@](O)(C(=O)CO)C[C@@H]3O[C@H]1C[C@H](N)[C@H](O)[C@H](C)O1 [Doxorubicin] + COc1ccc(C[C@H](N)C(=O)N[C@H]2[C@@H](O)[C@H](n3cnc4c(N(C)C)ncnc43)O[C@@H]2CO)cc1 [Puromycin] ?
**Result** 0.54

**Query** Any idea what fitness was measured for COc1cccc2c1C(=O)c1c(O)c3c(c(O)c1C2=O)C[C@@](O)(C(=O)CO)C[C@@H]3O[C@H]1C[C@H](N)[C@H](O)[C@H](C)O1 [Doxorubicin] + CN[C@@H]1[C@H](O)[C@H](NC)[C@H]2O[C@@]3(O)C(=O)C[C@@H](C)O[C@H]3O[C@@H]2[C@H]1O [Spectinomycin] ?
**Result** 0.908

**Query** Any idea what fitness was measured for O=C(O)c1cn(C2CC2)c2cc(N3CCNCC3)c(F)cc2c1=O [Ciprofloxacin] + CN[C@@H]1[C@H](O[C@H]2[C@H](O[C@H]3[C@H](O)[C@@H](O)[C@H](N=C(N)N)[C@@H](O)[C@@H]3N=C(N)N)O[C@@H](C)[C@]2(O)C=O)O[C@@H](CO)[C@H](O)[C@H]1O [Streptomycin] ?
**Result** 0.774

**Query** Any idea what fitness was measured for COc1cccc2c1C(=O)c1c(O)c3c(c(O)c1C2=O)C[C@@](O)(C(=O)CO)C[C@@H]3O[C@H]1C[C@H](N)[C@H](O)[C@H](C)O1 [Doxorubicin] + O=C1CN(/N=C/c2ccc([N+](=O)[O-])o2)C(=O)N1 [Nitrofurantoin] ?
**Result** 0.857
